Ref: patent US10221139B2

system: PLU1 (KDM5B) (Homo sapiens, UniProt Q9UGL1)
Construct: (1-752); host or cells: U2OS
method.notes: Immunofluorescence assay in U2OS cells transfected with pCMVHA PLU1 (H3K4me2 mark)
Type: cell-based
measurement.setup: 20 hours
Sequence (Q9UGL1 1-752): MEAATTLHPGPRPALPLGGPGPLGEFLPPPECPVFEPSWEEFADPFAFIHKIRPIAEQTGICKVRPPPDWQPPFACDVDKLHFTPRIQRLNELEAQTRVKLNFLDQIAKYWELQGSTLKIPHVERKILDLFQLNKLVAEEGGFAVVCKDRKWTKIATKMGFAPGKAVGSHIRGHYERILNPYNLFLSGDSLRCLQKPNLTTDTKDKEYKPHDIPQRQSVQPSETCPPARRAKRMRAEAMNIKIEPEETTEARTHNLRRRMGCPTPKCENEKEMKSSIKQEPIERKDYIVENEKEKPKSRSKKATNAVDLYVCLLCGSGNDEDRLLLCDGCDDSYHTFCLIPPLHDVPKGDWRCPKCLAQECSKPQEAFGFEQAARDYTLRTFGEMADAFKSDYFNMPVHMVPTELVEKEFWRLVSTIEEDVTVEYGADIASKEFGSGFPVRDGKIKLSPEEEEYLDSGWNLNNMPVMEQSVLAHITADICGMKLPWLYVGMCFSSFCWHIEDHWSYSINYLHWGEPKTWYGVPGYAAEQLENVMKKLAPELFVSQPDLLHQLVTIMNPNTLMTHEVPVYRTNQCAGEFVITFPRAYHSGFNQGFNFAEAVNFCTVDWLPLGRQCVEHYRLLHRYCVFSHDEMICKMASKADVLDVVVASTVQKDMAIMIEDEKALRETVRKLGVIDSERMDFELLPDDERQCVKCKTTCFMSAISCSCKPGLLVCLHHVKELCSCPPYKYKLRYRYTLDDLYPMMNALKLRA
pIC50: −log10 of the molar value.
property.name: pIC50

Sample answers from the record:
> print(dat)
                                    molecule   measurement
 1  CCN1CCCC1CNC(=O)CNCc1cc(C(=O)O)ccn1 (stereo not drawn) [drawing 313]  4.30 to 6.00
 2   C#CCN(C)Cc1cc(C(=O)O)ccn1 [drawing 302]        < 4.30
 3  CN(Cc1ccnn1C)C(=O)CNCc1cc(C(=O)O)ccn1 [drawing 314]        < 4.30
 4    O=C(O)c1ccnc(CNCC2CC2)c1 [drawing 299]  4.30 to 6.00
 5  O=C(O)c1ccnc(CNCCCN2CCCC2)c1 [drawing 325]  4.30 to 6.00
 6  O=C(O)c1ccnc(CNCCCNCCCN2CCCC2)c1 [drawing 310]        < 4.30
 7  CCN(CC)CCCCNCc1cc(C(=O)OCCCN(C)C)ccn1 [drawing 332]  4.30 to 6.00
 8  C=CCN(CC=C)C(=O)CNCc1cc(C(=O)O)ccn1 [drawing 309]  4.30 to 6.00
 9  CN(C)CCN(C)Cc1cc(C(=O)O)ccn1 [drawing 301]        < 4.30
10  CCOC(=O)c1ccccc1OC(=O)c1ccnc(CNCCCCN(CC)CC)c1 [drawing 330]        > 6.00

Given CN(C)CCNCc1cc(C(=O)O)ccn1 [drawing 297] , state its recorded pIC50.
4.30 to 6.00

Give its pIC50 value. Item: O=C(O)c1ccnc(CNCCCn2ccnc2)c1 [drawing 296]
4.30 to 6.00

Param item = O=C(O)c1ccnc(CNC[C@@H](O)CO)c1 [drawing 298] ; retrieve measured pIC50.
< 4.30

###

system: PLU1 (KDM5B) (Homo sapiens)
Construct: 1-809; host or cells: E. coli
method.notes: Histone lysine demethylase AlphaLISA assay, PLU1
Assay type: biochemical
measurement.setup: substrate H3K4M3B
Description: Example 2: Histone Lysine Demethylase AlphaLISA Assays for IC50 Value Determination Assays are performed analogously to the protocol described by Perkin Elmer (Roy et al. Perkin Elmer Technical Note: AlphaLISA #12, April 2011). Enzymes are dissolved in enzyme buffer and incubated for 10 min before 5 μL is added to 5 μL 3% DMSO solutions of compounds in enzyme buffer. […] After incubation at room temperature in the dark the plates are read. […]
Sequence (Q9UGL1 1-809): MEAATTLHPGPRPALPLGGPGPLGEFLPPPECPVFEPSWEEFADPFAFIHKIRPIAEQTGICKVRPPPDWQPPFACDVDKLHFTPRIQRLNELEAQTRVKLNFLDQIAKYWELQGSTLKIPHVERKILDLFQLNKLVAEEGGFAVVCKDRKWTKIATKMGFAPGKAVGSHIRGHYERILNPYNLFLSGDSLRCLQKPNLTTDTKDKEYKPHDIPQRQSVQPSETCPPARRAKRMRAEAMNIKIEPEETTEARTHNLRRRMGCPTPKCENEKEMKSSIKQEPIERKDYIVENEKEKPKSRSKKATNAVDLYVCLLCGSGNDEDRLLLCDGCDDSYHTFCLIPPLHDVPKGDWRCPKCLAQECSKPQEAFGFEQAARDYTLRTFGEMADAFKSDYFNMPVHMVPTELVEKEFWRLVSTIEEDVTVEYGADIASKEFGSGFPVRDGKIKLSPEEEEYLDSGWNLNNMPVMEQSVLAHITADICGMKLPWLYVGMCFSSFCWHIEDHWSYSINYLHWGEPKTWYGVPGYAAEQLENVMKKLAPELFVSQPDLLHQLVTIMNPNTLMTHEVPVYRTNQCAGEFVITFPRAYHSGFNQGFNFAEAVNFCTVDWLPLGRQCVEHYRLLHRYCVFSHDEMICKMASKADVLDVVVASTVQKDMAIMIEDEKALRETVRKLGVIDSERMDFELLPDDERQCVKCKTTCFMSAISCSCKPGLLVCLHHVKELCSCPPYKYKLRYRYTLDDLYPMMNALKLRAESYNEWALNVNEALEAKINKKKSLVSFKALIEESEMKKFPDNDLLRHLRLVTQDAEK
Items are presented alongside their recorded IC50.

For orientation, consider the following solved cases.
> print(dat)
                                   molecule                       system     measurement
1  CC(C)CN(CC(=O)N1CCCCC1)Cc1cc(C(=O)O)ccn1 [#86]  PLU1 (KDM5B) (Homo sapiens)       ≥ 1000 nM
2  O=C(O)c1ccnc(CNCC(=O)N2CCCC2Cc2ccccc2)c1 (centres unmarked) [#43]  PLU1 (KDM5B) (Homo sapiens)        < 100 nM
3  O=C(O)c1ccnc(CNCC(=O)N2CCCC(Cc3nc4ccccc4[nH]3)C2)c1 (centres unmarked) [#38]  PLU1 (KDM5B) (Homo sapiens)        < 100 nM
4                O=C(O)c1ccnc(CNCCF)c1 [#8]  PLU1 (KDM5B) (Homo sapiens)  100 to 1000 nM

Would you kindly look at the next entry?
Reported IC50, molecule O=C(CNCc1cc(C(=O)O)ccn1)NC1CCN(Cc2ccc(-c3ccccc3)o2)CC1 [#32] : ____
< 100 nM
